Listing: GI50 of selected molecules
experimental.system: BaF3 TELJAK3 cells (Homo sapiens, UniProt P52333)
Construct: fused on or other part: TEL (ETV6) N-terminal part, coding nucleotides 1-487, serves as the oligomerising partner; It is fused through a Sal I site to the JAK3 kinase domain and expressed from pTRE2 in BaF3 cells bearing pTET-off; P41212 (Transcription factor ETV6)
Sequence (P52333 whole entry, change not shown, the tested form may be a part): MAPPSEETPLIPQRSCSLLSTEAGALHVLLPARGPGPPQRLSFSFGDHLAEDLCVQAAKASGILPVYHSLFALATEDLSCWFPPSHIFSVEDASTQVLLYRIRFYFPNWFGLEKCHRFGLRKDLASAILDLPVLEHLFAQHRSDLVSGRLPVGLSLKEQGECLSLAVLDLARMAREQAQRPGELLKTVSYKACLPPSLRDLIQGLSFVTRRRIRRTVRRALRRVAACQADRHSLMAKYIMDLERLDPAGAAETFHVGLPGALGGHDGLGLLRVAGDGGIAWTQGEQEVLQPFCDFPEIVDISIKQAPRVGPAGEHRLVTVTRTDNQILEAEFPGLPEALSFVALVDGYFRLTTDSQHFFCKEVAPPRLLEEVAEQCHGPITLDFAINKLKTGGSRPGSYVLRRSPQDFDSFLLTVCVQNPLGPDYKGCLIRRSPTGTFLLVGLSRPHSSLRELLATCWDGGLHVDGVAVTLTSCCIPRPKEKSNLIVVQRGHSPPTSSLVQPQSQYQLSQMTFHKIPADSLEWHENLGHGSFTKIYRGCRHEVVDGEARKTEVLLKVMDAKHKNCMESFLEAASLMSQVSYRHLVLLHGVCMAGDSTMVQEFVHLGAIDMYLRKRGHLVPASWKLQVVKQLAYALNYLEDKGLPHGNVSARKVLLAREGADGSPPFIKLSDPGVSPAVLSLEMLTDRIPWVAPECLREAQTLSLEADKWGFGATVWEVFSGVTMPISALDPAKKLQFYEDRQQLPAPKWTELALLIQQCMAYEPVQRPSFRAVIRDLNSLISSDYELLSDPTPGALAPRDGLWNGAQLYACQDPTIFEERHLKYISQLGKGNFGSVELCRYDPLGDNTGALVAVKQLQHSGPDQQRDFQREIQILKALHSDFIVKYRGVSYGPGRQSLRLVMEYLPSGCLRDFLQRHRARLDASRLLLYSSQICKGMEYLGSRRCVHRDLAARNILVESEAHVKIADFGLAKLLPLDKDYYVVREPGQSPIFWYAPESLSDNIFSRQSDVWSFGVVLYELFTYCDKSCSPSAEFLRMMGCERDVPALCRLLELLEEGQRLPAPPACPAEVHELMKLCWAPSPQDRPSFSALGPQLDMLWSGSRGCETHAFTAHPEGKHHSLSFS
procedure.text: Cellular screening, BaF3 TEL:JAK3 cells, Alamar Blue
Format: cell-based
condition.summary: 40 hr, read-out: BafT_J3 IC50_nM
Description: For screening purposes, compounds were diluted in 96 well plates at a concentration of 20 μM. Plates were warmed at 37° C. for 30 minutes before the assay was performed. […] Compounds to be tested were added (10 μL, 10× final concentration) to a flat bottomed 96-well plate. […] The plates were then read at 544 nm.
readout.type: GI50

- chem.smiles: "C=CC(=O)Nc1ccc(Sc2ccnc(Nc3ccc(N4CCN(C)CC4)cc3)n2)cc1"
  experimental.system: "BaF3 TELJAK3 cells (Homo sapiens, UniProt P52333)"
  reported.value: "< 1 µM"
- chem.smiles: "C=CC(=O)Nc1ccc(Sc2ccnc(Nc3ccc(S(N)(=O)=O)cc3)n2)cc1"
  experimental.system: "BaF3 TELJAK3 cells (Homo sapiens, UniProt P52333)"
  reported.value: "< 20 µM"
- chem.smiles: "Cc1cnc(Nc2ccc(N3CCOCC3)cc2)nc1Sc1ccc(CO)cc1"
  experimental.system: "BaF3 TELJAK3 cells (Homo sapiens, UniProt P52333)"
  reported.value: "< 5 µM"
- chem.smiles: "C=CC(=O)Nc1ccc(Sc2ccnc(Nc3ccc4c(c3)OCO4)n2)cc1"
  experimental.system: "BaF3 TELJAK3 cells (Homo sapiens, UniProt P52333)"
  reported.value: "< 1 µM"
- chem.smiles: "C=CC(=O)Nc1ccc(Sc2nc(Nc3ccc(N4CCOCC4)cc3)ncc2C)c(Cl)c1C"
  experimental.system: "BaF3 TELJAK3 cells (Homo sapiens, UniProt P52333)"
  reported.value: "< 5 µM"
- chem.smiles: "C=CC(=O)Nc1ccc(Sc2nc(Nc3ccc(N4CCOCC4)cc3)ncc2-c2ccccc2)cc1"
  experimental.system: "BaF3 TELJAK3 cells (Homo sapiens, UniProt P52333)"
  reported.value: "< 20 µM"
- chem.smiles: "C=CC(=O)Nc1ccc(Sc2nc(Nc3ccc(N4CCC(CO)CC4)cc3)ncc2C)cc1"
  experimental.system: "BaF3 TELJAK3 cells (Homo sapiens, UniProt P52333)"
  reported.value: "< 1 µM"
- chem.smiles: "Cc1cnc(Nc2ccc(N3CCOCC3)cc2)nc1Sc1ccc(NC(=O)CCC(=O)O)cc1"
  experimental.system: "BaF3 TELJAK3 cells (Homo sapiens, UniProt P52333)"
  reported.value: "> 20 µM"
- chem.smiles: "C=CC(=O)Nc1ccc(Sc2ccnc(Nc3cccc(CO)c3)n2)cc1"
  experimental.system: "BaF3 TELJAK3 cells (Homo sapiens, UniProt P52333)"
  reported.value: "< 1 µM"
- chem.smiles: "CC#CC(=O)Nc1ccc(Sc2ccnc(Nc3cccc(N4CCOCC4)c3)n2)cc1"
  experimental.system: "BaF3 TELJAK3 cells (Homo sapiens, UniProt P52333)"
  reported.value: "< 1 µM"
- chem.smiles: "C=CC(=O)Nc1ccc(Sc2nc(Nc3ccc(OC)c(NS(C)(=O)=O)c3)ncc2C)cc1"
  experimental.system: "BaF3 TELJAK3 cells (Homo sapiens, UniProt P52333)"
  reported.value: "< 1 µM"
- chem.smiles: "C=CC(=O)Nc1ccc(Sc2ccnc(Nc3cccc(S(=O)(=O)N4CCN(C)CC4)c3)n2)cc1"
  experimental.system: "BaF3 TELJAK3 cells (Homo sapiens, UniProt P52333)"
  reported.value: "< 5 µM"
- chem.smiles: "Cc1cnc(Nc2ccc(N3CCOCC3)cc2)nc1Sc1ccc(N)cc1"
  experimental.system: "BaF3 TELJAK3 cells (Homo sapiens, UniProt P52333)"
  reported.value: "< 5 µM"
- chem.smiles: "CCC(=O)Nc1ccc(Sc2nc(Nc3ccc(N4CCOCC4)cc3)ncc2Cl)cc1"
  experimental.system: "BaF3 TELJAK3 cells (Homo sapiens, UniProt P52333)"
  reported.value: "< 1 µM"
- chem.smiles: "Cc1cnc(Nc2ccc(N3CCOCC3)cc2)nc1Sc1ccc(NC(=O)CSCC(=O)O)cc1"
  experimental.system: "BaF3 TELJAK3 cells (Homo sapiens, UniProt P52333)"
  reported.value: "> 20 µM"
- chem.smiles: "Cc1cnc(Nc2cccc(N3CCN(C)CC3)c2)nc1Sc1ccc(N)cc1"
  experimental.system: "BaF3 TELJAK3 cells (Homo sapiens, UniProt P52333)"
  reported.value: "< 1 µM"
- chem.smiles: "COc1cc(Nc2nccc(Sc3ccc(NCC#N)cc3)n2)cc(OC)c1OC"
  experimental.system: "BaF3 TELJAK3 cells (Homo sapiens, UniProt P52333)"
  reported.value: "< 5 µM"
- chem.smiles: "CNC(=O)CCC(=O)Nc1ccc(Sc2nc(Nc3ccc(N4CCOCC4)cc3)ncc2C)cc1"
  experimental.system: "BaF3 TELJAK3 cells (Homo sapiens, UniProt P52333)"
  reported.value: "> 20 µM"
- chem.smiles: "OCc1ccc(Sc2ccnc(Nc3ccc(N4CCOCC4)cc3)n2)cc1"
  experimental.system: "BaF3 TELJAK3 cells (Homo sapiens, UniProt P52333)"
  reported.value: "< 20 µM"
- chem.smiles: "NC(=O)c1ccc(Sc2ccnc(Nc3ccc(N4CCOCC4)cc3)n2)cc1"
  experimental.system: "BaF3 TELJAK3 cells (Homo sapiens, UniProt P52333)"
  reported.value: "> 20 µM"
- chem.smiles: "C=CC(=O)Nc1ccc(Sc2nc(Nc3ccc(C)c(Br)c3)ncc2C)cc1"
  experimental.system: "BaF3 TELJAK3 cells (Homo sapiens, UniProt P52333)"
  reported.value: "< 20 µM"
- chem.smiles: "Cc1cnc(Nc2ccc(N3CCOCC3)cc2)nc1Sc1cccc(CO)c1"
  experimental.system: "BaF3 TELJAK3 cells (Homo sapiens, UniProt P52333)"
  reported.value: "> 20 µM"
- chem.smiles: "COC(=O)COCC(=O)Nc1ccc(Sc2nc(Nc3ccc(N4CCOCC4)cc3)ncc2C)cc1"
  experimental.system: "BaF3 TELJAK3 cells (Homo sapiens, UniProt P52333)"
  reported.value: "< 20 µM"
- chem.smiles: "CCOC(=O)/C=C/C(=O)Nc1ccc(Sc2nc(Nc3ccc(N4CCOCC4)cc3)ncc2C)cc1"
  experimental.system: "BaF3 TELJAK3 cells (Homo sapiens, UniProt P52333)"
  reported.value: "< 1 µM"
- chem.smiles: "Cc1cnc(Nc2cccc(O)c2)nc1Sc1ccc(NC(=O)CCl)cc1"
  experimental.system: "BaF3 TELJAK3 cells (Homo sapiens, UniProt P52333)"
  reported.value: "< 1 µM"
- chem.smiles: "Cc1cnc(Nc2ccc(N3CCOCC3)cc2)nc1Sc1ccc(NC(=O)/C(Br)=C\\C(=O)O)cc1"
  experimental.system: "BaF3 TELJAK3 cells (Homo sapiens, UniProt P52333)"
  reported.value: "< 20 µM"
- chem.smiles: "NCc1cccc(Sc2ccnc(Nc3ccc(N4CCOCC4)cc3)n2)c1"
  experimental.system: "BaF3 TELJAK3 cells (Homo sapiens, UniProt P52333)"
  reported.value: "< 20 µM"
- chem.smiles: "Cc1cnc(Nc2cccc(NS(C)(=O)=O)c2)nc1Sc1ccc(CO)cc1"
  experimental.system: "BaF3 TELJAK3 cells (Homo sapiens, UniProt P52333)"
  reported.value: "< 5 µM"
- chem.smiles: "C=CC(=O)Nc1ccc(Sc2ccnc(Nc3ccc(S(=O)(=O)N4CCOCC4)c(OC)c3)n2)cc1"
  experimental.system: "BaF3 TELJAK3 cells (Homo sapiens, UniProt P52333)"
  reported.value: "< 5 µM"
- chem.smiles: "C=CC(=O)Nc1ccc(Sc2ccnc(Nc3cccc(N4CCOCC4)c3)n2)cc1"
  experimental.system: "BaF3 TELJAK3 cells (Homo sapiens, UniProt P52333)"
  reported.value: "< 1 µM"
- chem.smiles: "C=CC(=O)Nc1ccc(Sc2ccnc(Nc3ccccc3O)n2)cc1"
  experimental.system: "BaF3 TELJAK3 cells (Homo sapiens, UniProt P52333)"
  reported.value: "< 20 µM"
- chem.smiles: "C=CC(=O)Nc1ccc(Sc2ccnc(Nc3ccc(N4CCS(=O)(=O)CC4)cc3)n2)cc1"
  experimental.system: "BaF3 TELJAK3 cells (Homo sapiens, UniProt P52333)"
  reported.value: "< 1 µM"
- chem.smiles: "C=CC(=O)Nc1cc(C)c(Sc2nc(Nc3ccc(N4CCOCC4)cc3)ncc2C)c(C)c1"
  experimental.system: "BaF3 TELJAK3 cells (Homo sapiens, UniProt P52333)"
  reported.value: "< 1 µM"
- chem.smiles: "Cc1cnc(Nc2ccc(N3CCOCC3)cc2)nc1Sc1ccc(N)cc1Cl"
  experimental.system: "BaF3 TELJAK3 cells (Homo sapiens, UniProt P52333)"
  reported.value: "> 20 µM"
